# zone of inhibition at 200 µg/mL values compiled below
Tested on: Escherichia coli
assay_name: Antimicrobial activity against Escherichia coli at 200 ug/ml after 48 hr by cup-plate method
Format: functional
applied_conditions: read-out: IZ
The figure you give is taken to be in mm; do not add the unit.

1) Cc1sc([S-])n[n+]1C(=O)c1ccc(-n2c(-c3ccccc3)nc3ccccc3c2=O)cc1 ... 17
2) O=C(c1ccc(-n2c(-c3ccccc3)nc3ccccc3c2=O)cc1)[n+]1nc([S-])sc1-c1ccc([N+](=O)[O-])cc1 ... 23
3) O=C(c1ccc(Nc2nc(-c3ccccc3)nc3ccccc23)cc1)[n+]1nc([S-])sc1-c1ccc([N+](=O)[O-])cc1 ... 18
4) COc1ccc(-c2sc([S-])n[n+]2C(=O)c2ccc(Nc3nc(-c4ccccc4)nc4ccccc34)cc2)cc1[N+](=O)[O-] ... 23
5) O=C(c1ccc(Nc2nc(-c3ccccc3)nc3ccccc23)cc1)[n+]1nc([S-])sc1-c1ccc(Cl)cc1 ... 22
6) O=C(O)c1cn(C2CC2)c2cc(N3CCNCC3)c(F)cc2c1=O [CIPROFLOXACIN] ... 38
7) O=C(c1ccc(Nc2nc(-c3ccccc3)nc3ccccc23)cc1)[n+]1nc([S-])sc1-c1ccc(Cl)c([N+](=O)[O-])c1 ... 15
8) O=C(c1ccc(-n2c(-c3ccccc3)nc3ccccc3c2=O)cc1)[n+]1nc([S-])sc1-c1ccc(Cl)c([N+](=O)[O-])c1 ... 22

// switching to the query compound
Problem: Request: zone of inhibition at 200 µg/mL, test system Escherichia coli, entry COc1ccc(-c2sc([S-])n[n+]2C(=O)c2ccc(-n3c(-c4ccccc4)nc4ccccc4c3=O)cc2)cc1[N+](=O)[O-]
Solution: 15

Value source: ChEMBL document CHEMBL3044680
